# System: monoclonal antibody “Frida”
# experimental-details: In vitro inhibition (competition) ELISA with mAb Frida on coated original CETP epitope
# Assay type: binding, mouse
# recorded-conditions: FIG. 18b; coat 1 μM 4073 peptide; detection αIgG1; column without head
readout: inhibition ELISA signal, second value column
Give a plain numeric answer without units written out.

Quote inhibition ELISA signal, second value column with test system monoclonal antibody “Frida” for C-DFGFPAHVLIDWLQSLN (N-terminal cysteine; CETP mimotope) [p4990] 0.073

# return inhibition ELISA signal, second value column of C-PSHLIIDWLQ (N-terminal cysteine; CETP mimotope) [p4819] (system: monoclonal antibody “Frida”) 2.158

Look up monoclonal antibody “Frida” data: inhibition ELISA signal, second value column of FGFPAHVFIDWLQSLN-C [p5068] , then report it. 0.271

Give inhibition ELISA signal, second value column only, for C-PAHVFIDWLQ (N-terminal cysteine; CETP mimotope) [p4820] , using monoclonal antibody “Frida” data. 2.374

Look up and report measured inhibition ELISA signal, second value column (monoclonal antibody “Frida”) for the following substance: FGFPAHVYIDWLQSLS-C (C-terminal cysteine; CETP mimotope) [p5067] 0.217

Lab note: monoclonal antibody “Frida” assay, enter inhibition ELISA signal, second value column for FGFPEHLLVDFLQSLS-C (C-terminal Cys; CETP mimotope) [p1208, positive control peptide, reference compound] here 0.079

Give monoclonal antibody “Frida” inhibition ELISA signal, second value column for the following substance: C-DFGFPAHVTIDWLQSLN (N-terminal cysteine; CETP mimotope) [p4989] 0.274

----------
Exercise: state measured titer, injected peptide-BSA for each of the substances provided.
# Tested on: injected peptide-BSA
# experimental-details: Titer to the injected peptide in sera of immunised animals (peptide ELISA)
# Format: in vivo, mouse
# recorded-conditions: FIG. 11; Balb/c mice, 30 μg peptide, Alum as adjuvant; S3 = 2 weeks after 3rd injection; detection αIgG
Where no end group is shown, it is not given here.
Please give only the number in your answer, with no unit.

Quote titer, injected peptide-BSA with test system injected peptide-BSA for p4324-KLH: C-FGFPSHLIIDWAQSLS coupled to KLH (CFGFPSHLIIDWAQSLS; also: coupled to KLH) 12.570

Report value: titer, injected peptide-BSA, system: injected peptide-BSA, substance: p4353-KLH: C-FGFPAHVSIDWLQSLT coupled to KLH (CFGFPAHVSIDWLQSLT; also: coupled to KLH) 11.200

State, for injected peptide-BSA, measured titer, injected peptide-BSA of the substance listed here: p4345-KLH: C-FATPSHLIIDWLQSLS coupled to KLH (CFATPSHLIIDWLQSLS; also: coupled to KLH) 8.380

Recall the reported titer, injected peptide-BSA of p4325-KLH: C-FGFPSHLIIDWLQSLS coupled to KLH (CFGFPSHLIIDWLQSLS; also: coupled to KLH) when tested on injected peptide-BSA. 2.930

Fill in titer, injected peptide-BSA for p4359-KLH: C-FGFPAHIIIDWLQSLS coupled to KLH (CFGFPAHIIIDWLQSLS; also: coupled to KLH) tested with injected peptide-BSA. 8.540

Report titer, injected peptide-BSA under test system injected peptide-BSA for p4351-KLH: C-FGFPAHVSIDWLQYLS coupled to KLH (CFGFPAHVSIDWLQYLS; also: coupled to KLH) . 2.950

Find titer, injected peptide-BSA for p4352-KLH: C-FGFPAHVSIDWLQSIS coupled to KLH (CFGFPAHVSIDWLQSIS; also: coupled to KLH) on injected peptide-BSA and write it down. 19.680

// fetch titer, injected peptide-BSA for p4347-KLH: C-FGFPAHVSIDWLQLLS coupled to KLH (CFGFPAHVSIDWLQLLS; also: coupled to KLH) ; system: injected peptide-BSA 12.000

Give titer, injected peptide-BSA for this entry on injected peptide-BSA: p4366-KLH: C-FGFPSHLIIDWSQSLS coupled to KLH (CFGFPSHLIIDWSQSLS; also: coupled to KLH) 4.700

Consider the substance p4342-KLH: C-FSFPAHVSIDWLQSLS coupled to KLH (CFSFPAHVSIDWLQSLS; also: coupled to KLH) tested on injected peptide-BSA; state its titer, injected peptide-BSA. 4.620

GET titer, injected peptide-BSA | system: injected peptide-BSA | item: p4361-KLH: C-FGFPAHVFIDWLQSLS coupled to KLH (CFGFPAHVFIDWLQSLS; also: coupled to KLH) 17.940

Supply titer, injected peptide-BSA measured with injected peptide-BSA for p4343-KLH: C-FYFPAHVSIDWLQSLS coupled to KLH (CFYFPAHVSIDWLQSLS; also: coupled to KLH) . 5.580

Find titer, injected peptide-BSA for p4344-KLH: C-FDFPAHVSIDWLQSLS coupled to KLH (CFDFPAHVSIDWLQSLS; also: coupled to KLH) on injected peptide-BSA and write it down. 12.200

Tell me its titer, injected peptide-BSA on injected peptide-BSA: p4358-KLH: C-FGFPAHISIDWLQSLS coupled to KLH (CFGFPAHISIDWLQSLS; also: coupled to KLH) 16.500

Given p4341-KLH: C-WGFPAHVSIDWLQSLS coupled to KLH (CWGFPAHVSIDWLQSLS; also: coupled to KLH) , report its titer, injected peptide-BSA on injected peptide-BSA. 10.350

# lookup: injected peptide-BSA titer, injected peptide-BSA, key = p4340-KLH: C-PGFPAHVSIDWLQSLS coupled to KLH (CPGFPAHVSIDWLQSLS; also: coupled to KLH) 18.100

----------
# Tested on: monoclonal antibody “Frida”
# experimental-details: In vitro inhibition (competition) ELISA with mAb Frida on coated original CETP epitope
# Assay type: binding, mouse
# recorded-conditions: FIG. 18b; coat 1 μM 4073 peptide; detection αIgG1; column without head
readout: inhibition ELISA signal, second value column
Number only, no unit.

For monoclonal antibody “Frida”, give inhibition ELISA signal, second value column of the listed substance: C-PAHVYIDWLQSLS (N-terminal cysteine; CETP mimotope) [p4629] 0.118

Provide measured inhibition ELISA signal, second value column on monoclonal antibody “Frida” for C-DFGFPAHVFIDWLQSLN (N-terminal cysteine; CETP mimotope) [p4818] please. 0.091

Answer with inhibition ELISA signal, second value column of C-FGFPAHVYIDWLQ (N-terminal cysteine; CETP mimotope) [p4630] measured for monoclonal antibody “Frida”. 2.115

Give inhibition ELISA signal, second value column; test system monoclonal antibody “Frida”; substance C-FGFPAHVFIDWLQ (N-terminal cysteine; CETP mimotope) [p4631] 2.147

Print monoclonal antibody “Frida” inhibition ELISA signal, second value column for C-DFGFPSHLIIDWLQSLS (N-terminal cysteine; CETP mimotope) [p4642] . 0.082

----------
# Test system: rabbit CETP
# experimental-details: Anti-protein ELISA of sera of immunised mice, plates coated with purified rabbit CETP
# Format: in vivo, mouse
# recorded-conditions: FIG. 12b; sera of immunised mice; purified rabbit CETP
Where no end group is shown, it is not given here.
Please go through the items and note down their ELISA signal, rabbit CETP.

Could you please provide reported ELISA signal, rabbit CETP for p4325-KLH: C-FGFPSHLIIDWLQSLS coupled to KLH (CFGFPSHLIIDWLQSLS; also: coupled to KLH) ? Thanks! 0.85

Kindly indicate its recorded ELISA signal, rabbit CETP. Item: p4351-KLH: C-FGFPAHVSIDWLQYLS coupled to KLH (CFGFPAHVSIDWLQYLS; also: coupled to KLH) 0.59

Give the reported ELISA signal, rabbit CETP for this substance. p4342-KLH: C-FSFPAHVSIDWLQSLS coupled to KLH (CFSFPAHVSIDWLQSLS; also: coupled to KLH) 0.41

----------
Field: ELISA signal, rabbit CETP. Provide a value for each of the substances that follow.
# Test system: rabbit CETP
# experimental-details: Anti-protein ELISA of sera of immunised mice, plates coated with purified rabbit CETP
# Assay type: in vivo, mouse
# recorded-conditions: FIG. 12b; sera of immunised mice; purified rabbit CETP
# Procedure: FIGS. 12a and 12b show the in vivo induction of CETP specific antibodies by the administration of the mimotopes of the invention. […] Titers to injected peptides as well as to the original CETP epitope were determined. In addition, for selected sera also immune response to CETP protein was measured (Results see FIGS. 7a to 7d and FIGS. 19a to 19e).
Where no end group is shown, it is not given here.
API note: the answer field is a bare number with no unit suffix.

Note down ELISA signal, rabbit CETP recorded for p4345-KLH: C-FATPSHLIIDWLQSLS coupled to KLH (CFATPSHLIIDWLQSLS; also: coupled to KLH) 0.46

Return value of ELISA signal, rabbit CETP for input p4343-KLH: C-FYFPAHVSIDWLQSLS coupled to KLH (CFYFPAHVSIDWLQSLS; also: coupled to KLH) , no commentary. 1.05

Indicate the recorded ELISA signal, rabbit CETP value for this substance: p4344-KLH: C-FDFPAHVSIDWLQSLS coupled to KLH (CFDFPAHVSIDWLQSLS; also: coupled to KLH) 0.43

Kindly indicate its recorded ELISA signal, rabbit CETP. Item: p4366-KLH: C-FGFPSHLIIDWSQSLS coupled to KLH (CFGFPSHLIIDWSQSLS; also: coupled to KLH) 0.65

Provenance of the data: patent US8618046B2
